Sourced from ChEMBL document CHEMBL5154696

# Test system: A549
# test.name: Antiproliferative activity against human A549 cells harboring KRAS G12S mutant measured after 72 hrs by CCK-8 assay
# Format: functional, cell-based
# details: A549, 72 h
measurement.label: pIC50
Notebook: values listed as pIC50 are -log10 of the concentration (mol/L).

*Q* pIC50 for CC=C(C#N)C(=O)N1CCN(c2nc(OC[C@@H]3CCCN3C)nc3c2CCN(c2cccc4cccc(Cl)c24)C3)C[C@@H]1CC#N ?
*A* 5.09

*Q* pIC50 for CCC=C(C#N)C(=O)N1CCN(c2nc(OC[C@@H]3CCCN3C)nc3c2CCN(c2cccc4cccc(Cl)c24)C3)C[C@@H]1CC#N ?
*A* 4.60

*Q* pIC50 for CN1CCC[C@H]1COc1nc2c(c(N3CCN(C(=O)C(C#N)=CC4CC4)[C@@H](CC#N)C3)n1)CCN(c1cccc3cccc(Cl)c13)C2 ?
*A* 4.88

*Q* pIC50 for C=CC(=O)N1CCN(c2nc(=O)n(-c3c(C)ccnc3C(C)C)c3nc(-c4c(O)cccc4F)c(F)cc23)[C@@H](C)C1 [SOTORASIB] ?
*A* 4.30

*Q* pIC50 for CC(C)C=C(C#N)C(=O)N1CCN(c2nc(OC[C@@H]3CCCN3C)nc3c2CCN(c2cccc4cccc(Cl)c24)C3)C[C@@H]1CC#N ?
*A* 4.30

*Q* pIC50 for CN1CCC[C@H]1COc1nc2c(c(N3CCN(C(=O)C(C#N)=CC(C)(C)C)[C@@H](CC#N)C3)n1)CCN(c1cccc3cccc(Cl)c13)C2 ?
*A* 4.79

---

# system.under.test: GTPase KRas (Homo sapiens, UniProt P01116, G12C)
# Sequence (P01116 whole entry G12C): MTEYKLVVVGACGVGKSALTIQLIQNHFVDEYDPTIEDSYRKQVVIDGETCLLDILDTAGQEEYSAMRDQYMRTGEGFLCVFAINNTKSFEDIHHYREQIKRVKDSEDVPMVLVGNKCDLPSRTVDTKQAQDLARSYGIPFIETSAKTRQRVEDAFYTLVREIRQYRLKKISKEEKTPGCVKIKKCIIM
# test.name: Inhibition of KRAS G12C mutant (unknown origin) assessed as inhibition of SOS1-catalyzed nucleotide exchange measured by HTRF assay
pIC50: −log10 of the molar value.
Param threshold (7) applies to pIC50; output fulfilled when value >= threshold, not fulfilled when value < threshold.

*Q* pIC50 >= 7 for CCC=C(C#N)C(=O)N1CCN(c2nc(OC[C@@H]3CCCN3C)nc3c2CCN(c2cccc4cccc(Cl)c24)C3)C[C@@H]1CC#N ?
*A* not fulfilled

*Q* pIC50 >= 7 for CN1CCC[C@H]1COc1nc2c(c(N3CCN(C(=O)C(C#N)=CC(C)(C)C)[C@@H](CC#N)C3)n1)CCN(c1cccc3cccc(Cl)c13)C2 ?
*A* not fulfilled

*Q* pIC50 >= 7 for CC(C)C=C(C#N)C(=O)N1CCN(c2nc(OC[C@@H]3CCCN3C)nc3c2CCN(c2cccc4cccc(Cl)c24)C3)C[C@@H]1CC#N ?
*A* not fulfilled

*Q* pIC50 >= 7 for CN1CCC[C@H]1COc1nc2c(c(N3CCN(C(=O)C(C#N)=CC4CC4)[C@@H](CC#N)C3)n1)CCN(c1cccc3cccc(Cl)c13)C2 ?
*A* fulfilled
